target.desc: C. elegans (N2) complex I (NADH:ubiquinone oxidoreductase) (Caenorhabditis elegans, UniProt P24887+Q93873+Q94360)
Sequence (Q94360 17-199): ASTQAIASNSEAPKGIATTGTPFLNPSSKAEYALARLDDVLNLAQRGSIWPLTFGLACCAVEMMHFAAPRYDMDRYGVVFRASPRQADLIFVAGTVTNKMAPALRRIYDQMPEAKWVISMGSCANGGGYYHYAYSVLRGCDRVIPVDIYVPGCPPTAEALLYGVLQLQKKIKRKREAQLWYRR
Sequence (P24887 whole entry): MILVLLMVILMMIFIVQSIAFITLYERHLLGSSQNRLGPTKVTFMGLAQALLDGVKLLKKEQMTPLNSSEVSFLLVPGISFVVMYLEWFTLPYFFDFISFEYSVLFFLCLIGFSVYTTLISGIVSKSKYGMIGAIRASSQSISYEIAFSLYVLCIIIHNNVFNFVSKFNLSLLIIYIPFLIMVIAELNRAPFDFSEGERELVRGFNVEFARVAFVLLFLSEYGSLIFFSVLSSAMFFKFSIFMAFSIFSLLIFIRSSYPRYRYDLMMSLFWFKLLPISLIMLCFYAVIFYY
Sequence (Q93873 31-482): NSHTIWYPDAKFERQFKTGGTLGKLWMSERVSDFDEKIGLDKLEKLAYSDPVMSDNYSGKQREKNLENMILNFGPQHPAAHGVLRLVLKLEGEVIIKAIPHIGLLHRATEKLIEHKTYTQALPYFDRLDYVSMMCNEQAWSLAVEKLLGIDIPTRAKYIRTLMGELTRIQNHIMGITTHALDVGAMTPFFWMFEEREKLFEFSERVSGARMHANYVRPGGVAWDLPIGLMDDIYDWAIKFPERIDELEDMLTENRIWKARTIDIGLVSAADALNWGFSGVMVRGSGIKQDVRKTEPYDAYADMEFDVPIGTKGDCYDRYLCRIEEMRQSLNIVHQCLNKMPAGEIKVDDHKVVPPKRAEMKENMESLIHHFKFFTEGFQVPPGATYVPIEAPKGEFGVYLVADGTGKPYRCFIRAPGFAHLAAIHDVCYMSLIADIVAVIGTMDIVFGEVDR
method.summary: biochemical
Format: biochemical
stated.conditions: wild-type C. elegans mitochondria; read-out: C. elegans Complex I IC50
pIC50: −log10 of the molar value.
assay.metric: pIC50

[[record]]
item_smiles = "Cc1ccc(Cn2c(C(C)C)nc3ccccc32)cc1"
recorded_value = 5.03

[[record]]
item_smiles = "Cn1c(Cc2ccc(Cl)cc2)nc2ccccc21"
recorded_value = 5.08

[[record]]
item_smiles = "CCc1cc(OCCn2cnc3ccccc32)ccc1Cl"
recorded_value = 5.09


###

Each entry below lists one item and its recorded activity at 37.5 µM value.
target.desc: B. taurus (heart) complex I (Bos taurus, UniProt P03887+P17694+P42026)
Sequence (P03887 whole entry): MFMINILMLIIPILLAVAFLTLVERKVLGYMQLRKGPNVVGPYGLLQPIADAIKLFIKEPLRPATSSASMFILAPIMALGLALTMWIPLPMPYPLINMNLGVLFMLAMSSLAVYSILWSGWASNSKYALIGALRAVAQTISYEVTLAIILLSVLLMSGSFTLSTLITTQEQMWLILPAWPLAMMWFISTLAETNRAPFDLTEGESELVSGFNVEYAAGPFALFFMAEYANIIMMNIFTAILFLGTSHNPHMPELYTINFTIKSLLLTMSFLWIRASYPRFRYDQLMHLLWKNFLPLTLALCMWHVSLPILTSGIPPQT
Sequence (P17694 34-463): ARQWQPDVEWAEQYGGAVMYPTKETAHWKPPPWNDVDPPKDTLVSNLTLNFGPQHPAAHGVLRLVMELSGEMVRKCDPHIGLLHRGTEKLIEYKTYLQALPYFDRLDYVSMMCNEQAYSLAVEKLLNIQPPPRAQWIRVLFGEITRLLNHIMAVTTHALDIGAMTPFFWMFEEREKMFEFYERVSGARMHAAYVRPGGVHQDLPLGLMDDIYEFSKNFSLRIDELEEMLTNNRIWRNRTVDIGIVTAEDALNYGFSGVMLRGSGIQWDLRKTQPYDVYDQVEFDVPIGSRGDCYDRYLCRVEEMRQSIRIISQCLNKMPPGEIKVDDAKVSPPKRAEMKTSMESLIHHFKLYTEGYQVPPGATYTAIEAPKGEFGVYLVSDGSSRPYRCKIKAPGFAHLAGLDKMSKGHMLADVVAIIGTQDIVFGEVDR
Sequence (P42026 38-216): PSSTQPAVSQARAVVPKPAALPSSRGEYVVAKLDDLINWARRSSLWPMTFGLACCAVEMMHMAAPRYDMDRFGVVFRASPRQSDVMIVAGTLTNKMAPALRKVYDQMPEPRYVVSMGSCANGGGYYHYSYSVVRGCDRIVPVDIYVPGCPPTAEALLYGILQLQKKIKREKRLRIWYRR
method.summary: biochemical
Format: biochemical
stated.conditions: Dose 37.5 µM; read-out: B. taurus mitochondrial complex I activity
assay.metric: activity at 37.5 µM (%)

[[record]]
molecule = "Cc1nc2ccccc2n1CCOc1ccccc1 [Compound 5550112]"
target_desc = "B. taurus (heart) complex I (Bos taurus, UniProt P03887+P17694+P42026)"
display_unit = "%"
recorded_value = 16.7

[[record]]
molecule = "Clc1ccc(Cn2cnc3ccccc32)cc1Cl [Compound 5571325]"
target_desc = "B. taurus (heart) complex I (Bos taurus, UniProt P03887+P17694+P42026)"
display_unit = "%"
recorded_value = 5.23

[[record]]
molecule = "Clc1ccccc1OCCCCn1cnc2ccccc21 [Compound 7925804]"
target_desc = "B. taurus (heart) complex I (Bos taurus, UniProt P03887+P17694+P42026)"
display_unit = "%"
recorded_value = 3.53


###

CC50 at 2 days reference
method.summary: in vitro
stated.conditions: human
assay.metric: CC50 at 2 days

[[record]]
compound = "Cc1nc2ccccc2n1Cc1ccc(F)cc1"
assay_metric = "CC50 at 2 days"
recorded_value = "> 100 µM"

[[record]]
compound = "Cc1nc2ccccc2n1Cc1ccccc1Cl"
assay_metric = "CC50 at 2 days"
recorded_value = "> 100 µM"

[[record]]
compound = "Brc1ccc(Cn2cnc3ccccc32)cc1"
assay_metric = "CC50 at 2 days"
recorded_value = "> 100 µM"

[[record]]
compound = "Cc1ccc2nc(C(C)c3ccc(CC(C)C)cc3)[nH]c2c1 (centres unmarked)"
assay_metric = "CC50 at 2 days"
recorded_value = "< 12.5 µM"

[[record]]
compound = "Cn1c(Cc2ccc(Cl)cc2)nc2ccccc21"
assay_metric = "CC50 at 2 days"
recorded_value = "> 100 µM"


###

target.desc: B. taurus (heart) complex I (Bos taurus, UniProt P03887+P17694+P42026)
method.summary: biochemical
Format: biochemical
stated.conditions: Dose 3 µM; read-out: B. taurus mitochondrial complex I activity
assay.metric: activity at 3 µM (%)

[[record]]
item_smiles = "Cc1ccc(OCCn2cnc3ccccc32)c(C)c1"
assay_metric = "activity at 3 µM"
recorded_value = 69.4

[[record]]
item_smiles = "Cc1ccccc1OCCCn1c(C)nc2ccccc21"
assay_metric = "activity at 3 µM"
recorded_value = 70.6

[[record]]
item_smiles = "Cc1ccc(SCCCCn2cnc3ccccc32)cc1"
assay_metric = "activity at 3 µM"
recorded_value = 70


###

target.desc: B. taurus (heart) complex I (Bos taurus, UniProt P03887+P17694+P42026)
method.summary: biochemical
Type: biochemical
stated.conditions: Dose 0.063 µM; read-out: B. taurus mitochondrial complex I activity
assay.metric: activity at 0.063 µM (%)

[[record]]
item_smiles = "Clc1ccc(OCCn2cnc3ccccc32)c(Cl)c1"
assay_metric = "activity at 0.063 µM"
recorded_value = 90.2

[[record]]
item_smiles = "Cc1cccc(OCCn2c(C)nc3ccccc32)c1"
assay_metric = "activity at 0.063 µM"
recorded_value = 88.5

[[record]]
item_smiles = "Cc1nc2ccccc2n1CCOc1ccccc1"
assay_metric = "activity at 0.063 µM"
recorded_value = 91.8

[[record]]
item_smiles = "Clc1ccc(Cn2cnc3ccccc32)c(Cl)c1"
assay_metric = "activity at 0.063 µM"
recorded_value = 89.8

[[record]]
item_smiles = "Cc1nc2ccccc2n1CCOc1ccccc1Cl"
assay_metric = "activity at 0.063 µM"
recorded_value = 88.9

[[record]]
item_smiles = "Nc1nc2ccccc2n1CCOc1ccc(Br)cc1"
assay_metric = "activity at 0.063 µM"
recorded_value = 92.4

[[record]]
item_smiles = "Nc1nc2ccccc2n1Cc1ccc(Cl)cc1"
assay_metric = "activity at 0.063 µM"
recorded_value = 87.9


###

target.desc: C. elegans complex II (succinate dehydrogenase) (Caenorhabditis elegans, UniProt O62215+P41956+Q09545)
Sequence (P41956 30-182): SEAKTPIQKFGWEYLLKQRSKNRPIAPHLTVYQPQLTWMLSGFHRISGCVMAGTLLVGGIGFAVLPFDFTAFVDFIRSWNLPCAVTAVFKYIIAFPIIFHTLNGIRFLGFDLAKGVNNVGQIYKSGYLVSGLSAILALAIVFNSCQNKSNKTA
Sequence (Q09545 22-298): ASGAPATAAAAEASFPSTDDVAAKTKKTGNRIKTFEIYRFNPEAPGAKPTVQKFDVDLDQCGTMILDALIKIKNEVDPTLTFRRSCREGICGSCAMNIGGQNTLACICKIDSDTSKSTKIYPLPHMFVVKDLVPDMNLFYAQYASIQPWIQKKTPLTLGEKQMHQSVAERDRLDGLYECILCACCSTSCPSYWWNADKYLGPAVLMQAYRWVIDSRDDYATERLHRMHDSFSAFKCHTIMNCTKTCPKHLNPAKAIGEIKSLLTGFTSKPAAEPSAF
Sequence (Q09508 32-646, further chain): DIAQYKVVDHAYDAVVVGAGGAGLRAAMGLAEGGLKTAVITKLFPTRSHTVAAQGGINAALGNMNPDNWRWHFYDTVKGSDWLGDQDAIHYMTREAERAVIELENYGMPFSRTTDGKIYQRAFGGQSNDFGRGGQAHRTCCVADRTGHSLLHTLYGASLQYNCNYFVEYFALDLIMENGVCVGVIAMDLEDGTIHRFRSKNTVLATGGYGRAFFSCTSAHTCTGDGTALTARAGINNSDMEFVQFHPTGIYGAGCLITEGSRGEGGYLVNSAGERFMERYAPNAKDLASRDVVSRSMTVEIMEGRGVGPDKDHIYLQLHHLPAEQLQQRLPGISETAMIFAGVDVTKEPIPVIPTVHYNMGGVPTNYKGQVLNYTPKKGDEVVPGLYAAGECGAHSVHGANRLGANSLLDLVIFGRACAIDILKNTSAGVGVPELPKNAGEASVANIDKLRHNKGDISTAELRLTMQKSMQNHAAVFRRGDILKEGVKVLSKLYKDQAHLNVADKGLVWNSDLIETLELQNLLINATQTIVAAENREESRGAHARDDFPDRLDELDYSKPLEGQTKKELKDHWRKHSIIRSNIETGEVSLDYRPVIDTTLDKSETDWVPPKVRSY
Sequence (O62215 31-145): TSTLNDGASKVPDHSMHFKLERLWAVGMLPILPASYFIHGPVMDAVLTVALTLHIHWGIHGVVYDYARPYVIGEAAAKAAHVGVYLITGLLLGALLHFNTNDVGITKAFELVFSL
method.summary: In vitro complex II activity assay, C. elegans mitochondria
Assay type: biochemical
stated.conditions: 100 μM of NPD compound; C. elegans mitochondria; mean of four biological replicates; read-out: Percent in vitro activity, Complex II (Mean)
assay.metric: activity at 100 µM (%)

[[record]]
compound = "C=C(C)[C@H]1Cc2c(ccc3c2O[C@@H]2COc4cc(OC)c(OC)cc4[C@@H]2C3=O)O1 [Rotenone, reference compound]"
display_unit = "%"
recorded_value = 106

[[record]]
compound = "CC(C)Cc1ccc(C(C)c2nc3ccccc3n2C)cc1 (stereo not shown)"
display_unit = "%"
recorded_value = 99.7

[[record]]
compound = "COc1cc2c(cc1OC)C(/C=C/c1ccc(N(C)C)cc1)=NCC2"
display_unit = "%"
recorded_value = 101

[[record]]
compound = "COc1cc2c(cc1OC)C(C(C)c1ccc(CC(C)C)cc1)=NCC2 (stereo not shown)"
display_unit = "%"
recorded_value = 106


###

target.desc: C. elegans (N2) complex I (NADH:ubiquinone oxidoreductase) (Caenorhabditis elegans, UniProt P24887+Q93873+Q94360)
method.summary: biochemical
Assay type: biochemical
stated.conditions: log10 of IC50 in µM; C. elegans mitochondria
Listed next: entries and their corresponding Log IC50 C. elegans complex I.
assay.metric: Log IC50 C. elegans complex I (µM)

[[record]]
compound = "Clc1ccc(SCCCCn2cnc3ccccc32)cc1"
display_unit = "µM"
recorded_value = -0.0223

[[record]]
compound = "c1ccc(-c2noc(CCCCc3nc4ccccc4[nH]3)n2)cc1"
display_unit = "µM"
recorded_value = 1.31

[[record]]
compound = "Nc1nc2ccccc2n1CCOc1ccc(Br)cc1"
display_unit = "µM"
recorded_value = 0.79

[[record]]
compound = "Cc1ccc(CSCc2nc3ccccc3[nH]2)cc1"
display_unit = "µM"
recorded_value = 1.46

[[record]]
compound = "Cc1nc2ccccc2n1Cc1ccc(F)cc1"
display_unit = "µM"
recorded_value = -0.03

[[record]]
compound = "Brc1ccccc1OCCCCn1cnc2ccccc21"
display_unit = "µM"
recorded_value = -0.37

[[record]]
compound = "Cc1ccc2nc(C(C)c3ccc(CC(C)C)cc3)[nH]c2c1 (centres unmarked)"
display_unit = "µM"
recorded_value = -0.04

[[record]]
compound = "CCc1ccc(OC(C)c2nc3ccccc3[nH]2)cc1 (centres unmarked)"
display_unit = "µM"
recorded_value = 1.85

[[record]]
compound = "Cc1ccc(Cn2c(C)nc3ccccc32)cc1"
display_unit = "µM"
recorded_value = -0.74

[[record]]
compound = "Cc1nc2ccccc2n1Cc1ccccc1Cl"
display_unit = "µM"
recorded_value = -0.25

[[record]]
compound = "FC(F)(F)c1cccc(OCCCCn2cnc3ccccc32)c1"
display_unit = "µM"
recorded_value = 0.31


###

Overview of recorded % Activity Complex IV for various compounds
System: C. elegans complex IV (cytochrome C oxidase)
method.summary: In vitro complex IV activity assay, C. elegans mitochondria
Type: biochemical, Caenorhabditis elegans
stated.conditions: 100 µM compound, relative to solvent control, mean (SEM)
assay.metric: % Activity Complex IV

[[record]]
compound = "O=C(/C=C/c1ccccc1)/C=C/c1ccccc1 [FSL0005]"
recorded_value = "92.29 (3.01) %"

[[record]]
compound = "COc1ccc(N=c2cc(-c3ccc(OC)cc3)oc3ccc(O)cc23)cc1 [NPD8034]"
recorded_value = "96.04 (2.78) %"

[[record]]
compound = "CC(C)Cc1ccc(C(C)c2nc3ccccc3n2C)cc1 (stereo not shown) [NPD8790]"
recorded_value = "79.84 (1.34) %"

[[record]]
compound = "COc1cc2c(cc1OC)C(C(C)c1ccc(CC(C)C)cc1)=NCC2 (stereo not shown) [NPD10504]"
recorded_value = "74.57 (1.35) %"


###

target.desc: C. elegans (N2) complex I (NADH:ubiquinone oxidoreductase) (Caenorhabditis elegans, UniProt P24887+Q93873+Q94360)
method.summary: biochemical
Assay type: biochemical
stated.conditions: Dose 0.125 µM; read-out: C. elegans mitochondrial complex I activity
Below, each entry is listed with its recorded activity at 0.125 µM.
assay.metric: activity at 0.125 µM (%)

[[record]]
compound = "FC(F)(F)c1cccc(OCCCCn2cnc3ccccc32)c1"
recorded_value = 98

[[record]]
compound = "Clc1ccc(Cn2cnc3ccccc32)c(Cl)c1"
recorded_value = 79.5

[[record]]
compound = "Cc1ccc(SCCCCn2cnc3ccccc32)cc1"
recorded_value = 81

[[record]]
compound = "Cc1cccc(OCCn2c(C)nc3ccccc32)c1"
recorded_value = 81.6

[[record]]
compound = "Clc1ccccc1OCCCCn1cnc2ccccc21"
recorded_value = 64.9

[[record]]
compound = "CCc1cc(OCCn2cnc3ccccc32)ccc1Cl"
recorded_value = 63.3

[[record]]
compound = "Cc1ccc(OCCn2cnc3ccccc32)cc1"
recorded_value = 91.2

[[record]]
compound = "CCCn1c(COc2ccc(C)cc2)nc2ccccc21"
recorded_value = 123

[[record]]
compound = "Clc1ccc(Cn2cnc3ccccc32)cc1Cl"
recorded_value = 87.7

[[record]]
compound = "Cc1nc2ccccc2n1Cc1ccc(Cl)c(Cl)c1"
recorded_value = 72.5

[[record]]
compound = "Cc1ccc(C(C)C)c(OCC(O)Cn2cnc3ccccc32)c1 (stereo not drawn)"
recorded_value = 72.6

[[record]]
compound = "CC(C)Oc1cccc(OCCn2cnc3ccccc32)c1"
recorded_value = 81.6


Where do the numbers come from? From paper PMC11079024.
